Measured values drawn from paper PMC7305236 for this set.

target-under-test: delta opioid receptor (DOR) (human) (UniProt P41143)
No end group written: not given here.
test-readout: Supplementary Table 4: EC50 of β-arrestin-1 recruitment to DOR, U87 cells (nM)

>  <binder>
YGGFMARV-NH2 [adrenorphin-derived peptide YGGFMARV]

>  <unit-of-measurement>
nM

>  <numeric-value>
147

$$$$
>  <binder>
AYGGFMRRV-NH2

>  <unit-of-measurement>
nM

>  <numeric-value>
637

$$$$
>  <binder>
YGGFMRRVA-NH2

>  <unit-of-measurement>
nM

>  <numeric-value>
272

$$$$
>  <binder>
YGGWMRRV-NH2 [adrenorphin-derived peptide YGGWMRRV]

>  <unit-of-measurement>
nM

>  <numeric-value>
1020

$$$$
>  <binder>
YGGFMRKV-NH2 [adrenorphin-derived peptide YGGFMRKV]

>  <unit-of-measurement>
nM

>  <numeric-value>
378

$$$$
>  <binder>
YGGFMRRVR-NH2

>  <unit-of-measurement>
nM

>  <numeric-value>
193

$$$$
